meta.source: paper PMC3602246

# experimental-system: human kappa opioid receptor (Homo sapiens, UniProt P41145)
# Construct: FLAG
# Sequence (P41145 whole entry): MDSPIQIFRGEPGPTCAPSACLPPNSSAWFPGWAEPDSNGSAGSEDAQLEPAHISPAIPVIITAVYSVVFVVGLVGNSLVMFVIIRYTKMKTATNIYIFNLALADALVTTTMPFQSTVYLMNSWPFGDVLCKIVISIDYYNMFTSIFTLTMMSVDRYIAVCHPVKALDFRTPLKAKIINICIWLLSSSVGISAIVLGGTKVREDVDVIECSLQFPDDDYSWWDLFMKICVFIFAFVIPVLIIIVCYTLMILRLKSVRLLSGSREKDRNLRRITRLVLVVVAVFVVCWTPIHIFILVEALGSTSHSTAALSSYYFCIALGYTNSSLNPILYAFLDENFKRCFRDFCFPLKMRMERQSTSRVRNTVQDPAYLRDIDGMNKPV
# condition-parameters: read-out: IC50, single phase inhibition of BRL-52537 DMR
The entries below come with measured IC50 values attached.
Reply with the number, then its unit.

{"columns": ["compound", "value-observed"],
 "data": [
  ["O=C(Cc1ccc(Cl)c(Cl)c1)N1CCCCC1CN1CCCC1 (centres unmarked) [BRL-52537]", "4.1 nM"]
]}

Qu. Determine its reported IC50: CN(C(=O)Cc1ccc(Cl)c(Cl)c1)[C@H](CN1CCCC1)c1cccc(N=C=S)c1 [DIPPA]
Ans. 455 nM

---

# experimental-system: human kappa opioid receptor (Homo sapiens)
# Construct: FLAG; expressed in transfected cells
# Format: cell-based
# condition-parameters: read-out: EC50, second phase of biphasic DMR dose response
The entries below come with measured pEC50 values attached.
The quantity pEC50 is defined as the negative base-10 logarithm of the molar concentration.

{"columns": ["molecule", "experimental-system", "pEC50"],
 "data": [
  ["CN(C(=O)Cc1ccc(Cl)c(Cl)c1)[C@H](CN1CCCC1)c1cccc(N=C=S)c1 [DIPPA]", "human kappa opioid receptor (Homo sapiens)", 6.62]
]}

# ---- query molecule ----
Qu. Look up and report pEC50, with human kappa opioid receptor (Homo sapiens) as system, for O=C(Cc1ccc(Cl)c(Cl)c1)N1CCCCC1CN1CCCC1 (centres unmarked) [BRL-52537]
Ans. 7.59
